Assay: chemical genetic growth profiling, strain panel (AID 1159580);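 further: tested at 20 µM; growth read once vehicle control cultures reached saturation at 30 °C; 1 = growth at the plate median or of vehicle wells; lower values mean less growth of the strain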
Conditions: S. cerevisiae deletion strains, growth OD, locus YDR150W, strain NUM1, active compounds read low
Screen size: about 5,500 compounds; about 2,000 (36%) were called active. Inconclusive results (about 18%) are left out. The list shows a part of the results.
READOUT NAME: normalized growth
Keep it simple and answer with nothing but the number.

Recorded results for 4 compounds are shown here.
In [3]: df
Out[3]:
                                   compound       readout_name  reading
0  O=C(O)CCCCCC[C@H]1C(=O)NC(=O)N1CC[C@@H](O)C1CCCCC1  normalized growth    0.996
1                     Nc1c2ccccc2nc2ccccc12  normalized growth    0.838
2  CC1(C)CC[C@]2(C)CC[C@]3(C)C(=CCC4[C@@]5(C)CC[C@H](O)C(C)(C)C5CC[C@]43C)C2C1 (stereo partly specified)  normalized growth        1
3  O=C(COc1ccc(Cl)cc1)N1CCN(Cc2ccc3c(c2)OCO3)CC1  normalized growth    0.976

Data request, read-out normalized growth, for N#CC(NCc1ccccc1)c1ccc(Cl)c(Cl)c1 (stereo unspecified)
0.923

Same thing, different compound: c1cnc(N2CCN(Cc3ccc4c(c3)OCO4)CC2)nc1
0.996
